Values compiled from patent US20230285498A1.

system: SW1573; test: Cell proliferation assay, 2D (IncuCyte live cell imaging); assay type: cell-based; conditions: Homo sapiens; SW1573; 72 hours; Example 6
assay_readout: pIC50
# pIC50: negative log10 of molar concentration; output just the value

response.value for C=CC(=O)N1CCN(c2nc(=O)n(-c3c(C)ccnc3C(C)C)c3nc(-c4c(O)cccc4F)c(F)cc23)[C@@H](C)C1 [sotorasib] (field: pIC50) = 5.02

---

system: H358; assay: Cell proliferation assay, 2D (IncuCyte live cell imaging); type: cell-based; conditions: Homo sapiens, NCI-H358; H358; Example 1, FIG. 14C-14D; read-out: IC50, cell proliferation
assay_readout: pIC50
Please keep in mind that pIC50 is minus log10 of the molar concentration; only the number is needed.

compound C=CC(=O)N1CCN(c2nc(=O)n(-c3c(C)ccnc3C(C)C)c3nc(-c4c(O)cccc4F)c(F)cc23)[C@@H](C)C1 [sotorasib] , pIC50 observed: 6.10
